B1: library; a variant is named by its letters at N, in order (parent)
chain: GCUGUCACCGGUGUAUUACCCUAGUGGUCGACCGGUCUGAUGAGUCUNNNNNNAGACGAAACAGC

# Variants of: B1
# method-summary: normalized RNA/DNA level without ligand (relative to sTRSVctl = 100) (log10 (% of sTRSVctl)); ligand: hypoxanthine (xanthine aptamer); higher = less ribozyme self-cleavage, higher mRNA level
# applied-conditions: HEK293T, reporter: mCherry (pCS4076), ligand present: no
Provide the recorded normalized RNA/DNA level without ligand (log10) for the entries that follow.
Answers are plain numbers.

In the examples that follow, each entry is paired with its recorded normalized RNA/DNA level without ligand (log10).
{"mutation-id": "AUGGUC", "assay-result": 1.92}
{"mutation-id": "AAUAUG", "assay-result": 1.46}
{"mutation-id": "ACGUUU", "assay-result": 1.53}
{"mutation-id": "GAUCGA", "assay-result": 1.81}
{"mutation-id": "UAGUGU", "assay-result": 1.45}
{"mutation-id": "GCUCCA", "assay-result": 1.81}
{"mutation-id": "AGAUCU", "assay-result": 1.83}
{"mutation-id": "GAGUAU", "assay-result": 1.69}

Give me normalized RNA/DNA level without ligand (log10) for each of these variants, listed below.
1. UCCUUG
2. GGUCGA
3. GCUUAA
4. CACGCA
5. CUUUGC

1: 1.64; 2: 1.82; 3: 1.79; 4: 1.81; 5: 1.88

Give me normalized RNA/DNA level without ligand (log10) for each of these variants, listed below.
1. UCUGAA
2. UGAUGA
3. UUUUGU
4. GAUGGA
5. GGAGGC

1.68
1.58
1.84
1.67
1.37

Give me normalized RNA/DNA level without ligand (log10) for each of these variants, listed below.
1. GCCGCG
2. UGGGGU
3. UCUGGC
4. AGCGUC
5. AGAUUA
6. ACUUCG

1.52
1.64
1.87
1.97
1.8
1.6

Give me normalized RNA/DNA level without ligand (log10) for each of these variants, listed below.
1. UCUAGA
2. GUGUUA

[1.69, 1.79]

Give me normalized RNA/DNA level without ligand (log10) for each of these variants, listed below.
1. UCUCAC
2. GACUGU
3. CGUCAC
4. AAUCAU
5. UAGCUU
6. GCUUAU

1.77
1.81
1.92
1.84
1.84
1.81

Give me normalized RNA/DNA level without ligand (log10) for each of these variants, listed below.
1. AUGCCG
2. CCCCAU
3. AGCUGC
4. AGCGGU
5. AAUCCA
6. GUGCGC

1.49
1.87
1.87
1.55
1.86
1.74

Give me normalized RNA/DNA level without ligand (log10) for each of these variants, listed below.
1. UAGCGA
2. UCACGU
3. UUGACG
4. CAGGAC

1. 1.65
2. 1.78
3. 1.83
4. 1.78

Give me normalized RNA/DNA level without ligand (log10) for each of these variants, listed below.
1. CCUAGA
2. GUGCCU
3. ACACGC
4. UUAGGU
5. UUGUCG
6. UGGGAU

1: 1.84; 2: 1.89; 3: 1.71; 4: 1.8; 5: 1.95; 6: 1.71
